# system under test: Tyrosine-protein kinase Lck (Homo sapiens)
# assay info: Inhibition of LCK (unknown origin)
pIC50: −log10 of the molar value.

compound: COc1cc(-c2nn(C3CCC(N4CCN(C(C)=O)CC4)CC3)c3ncnc(N)c23)ccc1NC(=O)c1cc2ccccc2n1C (stereo unspecified)
pIC50: 6.83

---

# system under test: Tyrosine-protein kinase Lck (Homo sapiens, UniProt P06239)
# Sequence (P06239 whole entry, the tested form may be a part): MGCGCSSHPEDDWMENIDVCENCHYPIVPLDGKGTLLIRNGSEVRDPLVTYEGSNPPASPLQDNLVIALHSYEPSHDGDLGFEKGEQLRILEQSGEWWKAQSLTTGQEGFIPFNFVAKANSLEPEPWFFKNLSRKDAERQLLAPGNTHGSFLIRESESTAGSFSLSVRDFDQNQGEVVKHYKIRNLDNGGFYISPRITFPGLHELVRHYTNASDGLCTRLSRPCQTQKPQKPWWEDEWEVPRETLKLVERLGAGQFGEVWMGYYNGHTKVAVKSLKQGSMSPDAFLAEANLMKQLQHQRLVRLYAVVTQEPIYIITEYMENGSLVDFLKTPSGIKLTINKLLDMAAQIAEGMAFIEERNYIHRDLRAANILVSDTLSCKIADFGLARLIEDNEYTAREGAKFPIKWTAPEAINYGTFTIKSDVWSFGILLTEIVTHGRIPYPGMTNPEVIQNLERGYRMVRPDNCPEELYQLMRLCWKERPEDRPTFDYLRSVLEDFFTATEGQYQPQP
# assay info: Inhibition of recombinant human LCK (64 to 509 residues) incubated for 60 mins in presence of ATP by HTRF method

compound: COc1cc(-c2nn(C3CCC(N4CCN(C(C)=O)CC4)CC3)c3ncnc(N)c23)ccc1NC(=O)c1cc2ccccc2n1C (stereo unspecified)
quantity unit: nM
IC50: 147
